# Test system: MCF7 cell line
# Protocol summary: In vitro cytotoxic activity, MTT method, MCF7
# Format: cell-based, human
# Test conditions: MCF7, 0.0487 µMol
Task for the reader: assign each of the following molecules its reported Toxicity %.
Numeric answer only, unit % assumed.

Toxicity % lookup needed for CC(=O)C1C(c2ccc(N(C)C)cc2)c2c(C)[nH]c(=S)c(C#N)c2CC1(C)O (stereo not drawn) [Compound 1] , thanks.
0.2745

// repeat for COc1cccc2c1C(=O)c1c(O)c3c(c(O)c1C2=O)C[C@@](O)(C(=O)CO)C[C@@H]3O[C@H]1C[C@H](N)[C@H](O)[C@H](C)O1 [Doxorubicin, reference compound] and report
48.12

// repeat for CCOC(=O)CSc1nc(C)c2c(c1C#N)CC(C)(O)C(C(C)=O)C2c1ccc(N(C)C)cc1 (stereo not drawn) [Compound 4] and report
0.03467

// repeat for CC(=O)c1ccc(NC(=O)CSc2nc(C)c3c(c2C#N)CC(C)(O)C(C(C)=O)C3c2ccc(N(C)C)cc2)cc1 (stereo not drawn) [Compound 7d] and report
1.8855

// repeat for CC(=O)C1C(c2ccc(N(C)C)cc2)c2c(C)nc(SCC(=O)Nc3ccc(C)cc3)c(C#N)c2CC1(C)O (stereo not drawn) [Compound 7b] and report
4.569

// repeat for CC(=O)C1C(c2ccc(N(C)C)cc2)c2c(C)nc(SCC(=O)Nc3ccc(Cl)cc3)c(C#N)c2CC1(C)O (stereo not drawn) [Compound 7c] and report
-0.6776

// repeat for CC(=O)C1C(c2ccc(N(C)C)cc2)c2c(C)nc(SCC(=O)Nc3ccccc3)c(C#N)c2CC1(C)O (stereo not drawn) [Compound 7a] and report
-5.346

// repeat for CSc1nc(C)c2c(c1C#N)CC(C)(O)C(C(C)=O)C2c1ccc(N(C)C)cc1 (stereo not drawn) [Compound 3] and report
5.124

// repeat for CC(=O)C1C(c2ccc(N(C)C)cc2)c2c(C)nc(SCC(N)=O)c(C#N)c2CC1(C)O (stereo not drawn) [Compound 5] and report
-4.567
